// data source = the supplement of paper PMC10567573

B1: CCND2 (parent)
chain: YFKCVQKDIQPYMRRMVATWMLEV

- Variants of: B1
- experimental_protocol: protein stability index of a GFP-peptide fusion (GPS, HEK-293T) (PSI 1-6); higher = more stable;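 further: lentivirally expressed fusions sorted by FACS into six bins by GFP to DsRed ratio, PSI derived from sequencing read proportions per bin multiplied by bin number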
- applied_conditions: c terminus: a fixed tail appended
readout_label: protein stability index

variant	protein stability index
K3E	3.31
C4F	4.64
V24G	2.9
Q6C	3.44

## Input May I ask what protein stability index has been recorded for V17C ?
## Output 3.2

## Input Record: V5L
## Output 2.71

## Input Subsequent entry: E23A
## Output 1.78

## Input # iterate: R14I
## Output 2.63

## Input What do we get for K7D ?
## Output 1.91

## Input Same thing, different variant: C4H
## Output 2.37

## Input Next: M16A
## Output 3.12

## Input Then this variant: Q10S
## Output 3.22

## Input Next entry: L22N
## Output 1.65

## Input And then K3C , what is it?
## Output 2.89

## Input Now the same for W20Y
## Output 3.49

## Input Now consider Q10D .
## Output 2.77

## Input E23S ?
## Output 3.08

## Input And I9P ?
## Output 3.18

## Input Check C4I too.
## Output 2.84

## Input Now consider Y1W .
## Output 2.82
